# Test system: Human immunodeficiency virus 1
# measurement_protocol: Antiviral activity against HIV1 US2 clade B, R5 in human PBMC assessed as p24 antigen level by ELISA
# Type: functional, organism-based
# test_conditions: Human immunodeficiency virus 1, US2
observation_type: EC50 (nM)
One number for each entry, in nM.

The compound Cc1nnc(C(C)C)n1[C@H]1C[C@H]2CC[C@@H](C1)N2CC[C@H](NC(=O)C1CCC(F)(F)CC1)c1ccccc1 [MARAVIROC] , tested on Human immunodeficiency virus 1, showed EC50 of 0.3
